Origin of measurements: patent US20130109846A1

# Test Target: human CD28 (human, UniProt P10747 19-220)
# Assay Summary: cell-based or functional assay
Measured IFNγ (EC50 nM), DC-driven MLR accompanies every entry in the list below.
Quantity Name: IFNγ (EC50 nM), DC-driven MLR

1h-239-890 (other) VL: DIQMTQSPSSLSASVGDRVTITCRASRPIWPFLEWYQQKPGKAPKLLIYFTSRLARGVPSRFSGSGSGTDFTLTISSLQPEDFATYYCLQNVANPATFSQGTKVEIKR: 0.3
1h-99-265 (other) VH: EVQLLESGGGLVQPGGSLRLSCAASGFTFDKSNMSWARQAPGKGLEWVSWIEASGVQTFYADSVKGRFTISRDNSKNTLYLQMNSLRAEDTAVYYCAKSPFGPLYGFDYRGQGTLVTVSS: 4.6
1h-239-891(D70C) 40K branched PEG (other, 40 kDa branched PEG; engineered cysteine D70C) VL: DIQMTQSPSSLSASVGDRVTITCRASRPIWPFLEWYQQKPGKAPKLLIYFTSRLRHGVPSRFSGSGSGTCFTLTISSLQPEDFATYYCLQNVANPATFSQGTKVEIKR: 2.5
1h-239-896 (other) VL: DIQMTQSPSSLSASVGDRVTITCRASRPIWPFLEWYQQKPGKAPKLLIYFTSRLARGVPSRFSGSGSGTDFTLTISSLQPEDFATYYCLQNVQMPATFSQGTKVEIKR: 0.3
1h-239-891 (other) VL: DIQMTQSPSSLSASVGDRVTITCRASRPIWPFLEWYQQKPGKAPKLLIYFTSRLRHGVPSRFSGSGSGTDFTLTISSLQPEDFATYYCLQNVANPATFSQGTKVEIKR: 0.2
1h-239-891(D70C) 30K linear PEG (other, 30 kDa linear PEG; engineered cysteine D70C) VL: DIQMTQSPSSLSASVGDRVTITCRASRPIWPFLEWYQQKPGKAPKLLIYFTSRLRHGVPSRFSGSGSGTCFTLTISSLQPEDFATYYCLQNVANPATFSQGTKVEIKR: 0.6
